- Tested on: NCI/ADR-RES
- experiment-summary: NCI tumour cell line growth inhibition, 48 h
The source made the active and inactive calls. No stated cut-off is given here; in the data, active = GI50 up to about 1.1 µM and inactive = higher.

{"columns": ["molecule", "GI50"],
 "data": [
  ["C=C1C(=O)O[C@@]23C1CC[C@@H](C)C2CC[C@@]1(C)OC31 (stereo not given in full)", "16.8 µM (inactive)"],
  ["O=C1Nc2ccccc2/C1=N/Nc1ccccc1Cl", "44.6 µM (inactive)"],
  ["CCCCCCCC1C(C)c2c([nH]c3ccccc23)C2C(=O)N(c3ccc(OC)cc3)C(=O)C21 (stereo not given)", "1.7 µM (inactive)"],
  ["Cc1ccc(C2(C)CC/C(=N/N=C3/CCC(C)(c4ccc(C)c(C)c4)c4cc(C)c(C)cc43)c3cc(C)c(C)cc32)cc1C (stereo not given)", "> 100 µM (inactive)"],
  ["COC(=O)[C@@H]1C[C@]2(Br)c3ccccc3N(S(=O)(=O)c3ccccc3)[C@@H]2N1C(=O)OC", "> 100 µM (inactive)"]
]}

---

- Test system: SNB-19
- experiment-summary: NCI tumour cell line growth inhibition, 48 h
Calls of active or inactive are those of the source. Cut-off read from the data, not from the text of the source: active = GI50 up to about 1.1 µM and inactive = higher.

{"columns": ["compound", "GI50"],
 "data": [
  ["CC(=O)OC(C)(C)CCC(=O)[C@](C)(O)[C@H]1[C@H](O)C[C@@]2(C)[C@@H]3CC=C4C(C)=C(OC5OC(CO)C(O)C(O)C5O)C(=O)C[C@@H]4[C@]3(C)C(=O)C[C@]12C (stereo not given in full)", "> 100 µM (inactive)"],
  ["CC1=NNC(=O)C2CCC(=O)N12 (stereo not given)", "> 100 µM (inactive)"],
  ["CN1/C(=C\\N=O)C(C)(C)N(O)C1(C)C", "> 100 µM (inactive)"],
  ["O=C1/C(=C/c2ccccc2)CN(C(=O)Oc2ccccc2)C/C1=C\\c1ccccc1", "13.2 µM (inactive)"],
  ["Cc1cc(C)c2c(c1)CC1(Cc3ccc(C)c(C)c3C1=O)C2=O (stereo not given)", "> 100 µM (inactive)"],
  ["O=C(NN=C1CCN(Cc2ccccc2)CC1)C(O)(c1ccccc1)c1ccccc1", "> 100 µM (inactive)"],
  ["CSC1=Nc2ccccc2-c2nc3ccccc3cc2C1", "> 100 µM (inactive)"],
  ["CN(C)Cc1cc(C(=O)/C=C/c2ccc(Cl)cc2Cl)cc(CN(C)C)c1O", "4.12 µM (inactive)"],
  ["O=C(Cc1ccccc1)NS(=O)(=O)c1ccccc1", "> 100 µM (inactive)"],
  ["CC(C)(C)N/N=C(/Cc1nc2c3c(ccc2nc1O)C(=O)c1ccccc1C3=O)C(=O)NC1=C(Cl)C(=O)c2ccccc2C1=O", "72.8 µM (inactive)"]
]}

---

- Tested on: RXF 393
- experiment-summary: NCI tumour cell line growth inhibition, 48 h
Activity calls are given as the source filed them. No stated cut-off is given here; in the data, active = GI50 up to about 1.1 µM and inactive = higher.
Classes used: active, inactive

{"columns": ["molecule", "class-name"],
 "data": [
  ["COc1ccc2cc(C(=O)NCCCNC(=O)c3ccc4c(OC)c(OC)ccc4c3)ccc2c1OC", "inactive"],
  ["CC(=O)OC(C)(C)/C=C/C(=O)[C@](C)(O)[C@H]1[C@H](O)C[C@@]2(C)[C@@H]3CC=C4[C@@H](C=C(O)C(=O)C4(C)C)[C@]3(C)C(=O)C[C@]12C", "active"],
  ["Cc1cccc2nc3n(c12)C(=O)c1ccccc1-3", "inactive"],
  ["CCOC(=O)c1nc2cc(C(F)(F)F)ccc2nc1Nc1ccc(F)cc1", "inactive"],
  ["O=C(Cc1ccccc1)NS(=O)(=O)c1ccccc1", "inactive"],
  ["NNc1nnc(-c2ccccc2)nc1Cc1ccccc1", "inactive"],
  ["COc1cc2c(cc1OCCCC(=O)Nc1cc(C(=O)Nc3cc(C(=O)Nc4cc(C(=O)NCCCN(C)C)n(C)n4)n(C)c3)n(C)c1)N=CC1CCCN1C2=O (configuration not stated)", "inactive"],
  ["CCOC(=O)c1cc2c3ccn(Cc4ccccc4)c3c3c(C)noc3c2[nH]1", "inactive"],
  ["CC1=NC(=N)N=C(C)C1/N=N/c1ccc2[nH]c(C)nc2c1 (configuration not stated)", "inactive"],
  ["Cc1cc(NN)nc2[nH]nc(N)c12", "inactive"],
  ["Sc1nc2c(c(-c3nc(S)nc4c3CCCCCCCCCC4)n1)CCCCCCCCCC2", "inactive"],
  ["NCCN1CCCCCc2ccccc21", "inactive"],
  ["CCCNC(=O)C1C(=O)C(=O)N(CCC)C1=O (configuration not stated)", "inactive"],
  ["CC(=O)N1CC2Nc3ccccc3C2CC1CO (configuration not stated)", "inactive"],
  ["C=C1C(=O)O[C@@]23C1CC[C@@H](C)C2CC[C@@]1(C)OC31 (some centres not stated)", "inactive"],
  ["COc1cc2c(cc1OC)C1C(O)C(OC)C(Br)C3(Br)CCN(C2)C13 (configuration not stated)", "inactive"],
  ["CC(C)C(C/C=C1\\CC(CO)(COC(=O)c2ccccc2)OC1=O)C(C)C (configuration not stated)", "inactive"],
  ["CCC(C)CC(C)CC(C)/C=C(\\C)C1=C(C)CC(C)(O)O1 (configuration not stated)", "inactive"],
  ["Cc1ccc(CN2CCN(Cc3ccc(C)o3)C(C)C2)o1 (configuration not stated)", "inactive"],
  ["COC(=O)NC12CC3CC(CC(F)(C3)C1)C2", "inactive"],
  ["COc1ccc(S(=O)(=O)NNS(C)(=O)=O)cc1OC", "inactive"],
  ["CCc1nc2cc3cccnc3c(Cl)c2[nH]c1=O", "inactive"]
]}
